Provenance of the data: the nanobody polyreactivity screen of Harvey et al. (2022)

- measurement protocol: yeast display, Sf9 membrane polyspecificity reagent, FACS + sequencing; frameworks hold sequencing errors
measured metric: polyreactivity (PSR sort gate)

// solved cases for polyreactivity (PSR sort gate) follow
INSERT INTO assay_data (construct_sequence, result) VALUES
  ('QVQLVESGGGLVQAGGSLRLSCAASGRTIDYNGMGWYRQAPGKERELVAVISTSGGSTFYADSVKGRFTISRDNAKKTVYLQMNSLKPEDTAVYYCAADFIVAYTLHGSYDYWGQGTQVTVSS', 'low polyreactivity'),
  ('QVQLVESGVVLVQAGGSLRLSCAASGSTFVRYAMGWYRQAPGKERELVAANSRSGGRTYYADSVKGRFTISRDNAKHTVYLQMNSLKPEDTAVYYCYPYYIASTFDYWGQGTQVTVSS', 'high polyreactivity'),
  ('QVQLVESWGGLVQAGGSLRLSCAASGGIFWNYAMGWYRQAPGKERELVATISSGGSTKYADSVKGRFTISRDNAKNTVYLQMNSLKPEDTAVYYCNKVFPNLYIYVVRGLIEMDYWGQGTQVTVSS', 'low polyreactivity'),
  ('QVQLVESGGGIVQAGGSLRLSCAASGRTFQFYAMGWYRQEPGKERELVASITWSPVRTYYADSVKGRFTNSRDNAKNTVYLQMNSLKQEDTAVYSCAIDWDYRLMDYWGQGTQVTVSS', 'low polyreactivity'),
  ('QVQLVESGGGLVQAGGSLPLSCAASGSIFGINAMGWYRQAPGKERELVAAISSRGASTYYADSVKGRFTISRDNAKNTVYLQMNSLKPEDTAVYYCAADAFYWGQGTQVTVSS', 'low polyreactivity');

Query block: May I ask what polyreactivity (PSR sort gate) has been recorded for QVQLVESGGGLVQAGGSLRLSCAASGITFGWNAMGWYRPAPGKERELVAAITEDGDSTYYADSVKGRFTISRDNAMNTVYLQMNSLKPEDTAGYYCAAEYYDVYTYVQYDSWGQGTQVTVSS ?
Result block: high polyreactivity

Query block: May I ask what polyreactivity (PSR sort gate) has been recorded for QVQLVESGGGLVQAGGSLRLSCAPSGRTFSVHAMGWYRPARGKGRELVAAISWDGGSTYYADSVKGRFTISRDNANNTVYLQMNSLKPEETAVYYCNKDLYYAYDYWGQGTQVTVSS ?
Result block: low polyreactivity

Query block: May I ask what polyreactivity (PSR sort gate) has been recorded for QVQLVESGGGLVQAGGSLRLSCADSGFTFYFYAMGWYRQAPGKEREFIATINFISGSTYYADSVKGGVTISRDNAKNTVYLQMNSLKPEDTAVYYCNKPFPYYPDGPNGYDYWGQGTQVTVSS ?
Result block: low polyreactivity

Query block: May I ask what polyreactivity (PSR sort gate) has been recorded for QVQLVESGGGLVQAGGSLRLSCAASGRILGAYAMGWYRQAPGKERELVASISSGGRTYYADSVKGRFTISRDNAKNTVYLQMNSLKPEDTAVYYCNAKVRRRKYDYWGQGTQVTVSS ?
Result block: high polyreactivity

Query block: May I ask what polyreactivity (PSR sort gate) has been recorded for QVQLVESGGGLVQAGGSLRIICAASGSIFPYYAKGWYRQAPGKERELVARITITGGITYYADSVKGRFSISRDNAKNTVYLQMHSLKPEDTAVYYCAADRDWQYSFRHSVYVYDYDFWGQGTQVTVSS ?
Result block: low polyreactivity

Query block: May I ask what polyreactivity (PSR sort gate) has been recorded for QVQLVESGGGLVQAGGSLRLSCPASGRIFSFYALGGYRQAPGKERELVAAITYTDGSTYADSVKGRFTISRDNAKNTVYLQMNSLKPEDTAVYYCNAYRGWLLSREMDYWGQGTQVTVSS ?
Result block: low polyreactivity
